System: KM12 colon
Assay details: NCI-60 one-dose screen, 48 h
Measurement setup: 10 µM
This is part of a sample that, as a whole, favours compounds with a hit. Of some 83,000 tested, about 20% had one in any assay. Calls of active or inactive are those of the source. Rule for the calls: active = growth percent below 10; inactive = the rest.
Pick one: 1.0 = active, 0.0 = inactive

{"columns": ["Molecule", "Group"],
 "data": [
  ["C=C(C)[C@@H]1CC[C@]2(COP(=O)(OCC)OCC)CC[C@]3(C)[C@H](CC[C@@H]4[C@@](C)(CCCN)[C@H](C(=C)C)CC[C@]43C)[C@@H]12", 0.0],
  ["C=C(C)[C@@H]1CC[C@]2(C)[C@H](CC=C3[C@@H]4CC(C)(C)CC[C@]4(C(=O)N4CCOCC4)CC[C@]32C)[C@@]1(C)CCCN", 1.0],
  ["COc1ccc2cc([C@H](C)C(=O)NCc3ccccc3)ccc2c1", 0.0],
  ["COc1cc(/C=C/C(=O)c2ccc(NC(=O)CSc3nnc(-c4c[nH]c5ccccc45)n3-c3ccccc3)cc2)cc(OC)c1OC", 0.0],
  ["COc1cnc2c(c1)C(=O)c1c-2n(CCCNC(C)C)c(=O)c2cc(OC)c(OC)cc12", 0.0]
]}

Kindly provide the recorded test outcome for the following molecule: `O=C(CSc1nnc(-c2c[nH]c3ccccc23)n1-c1ccccc1)Nc1ccc(C(=O)/C=C/c2ccccc2Cl)cc1` 0.0

----------
Test system: COLO 205 colon
Assay details: NCI-60 one-dose screen, 48 h (100 = growth as untreated, 0 = no growth, -100 = all killed)
Measurement setup: 10 µM
Experimental: Cells are grown in 96 well plates and exposed to the test compound for 48 hours. Compounds are tested at a single concentration, which is 10^-5 M for most compounds. The reported endpoint is percent growth (GI% or GIPRCNT), where numbers from 0 - 100% represent growth inhibition, and numbers from -100% - 0 represent cell death. For example, a value of 40 represents 60% growth inhibition. A value of 0 means no net growth occurred over the course of the experiment. […]
Compounds without any hit were thinned out: in the full panel of roughly 83,000, 20% have a hit.
Threshold check on growth: strictly below -20% is rule met; on or above -20% is rule not met.

Take a look at these entries with their results.
{"columns": ["Compound", "Group"],
 "data": [
  ["CC[C@]12C=CCN3CC[C@@]4(c5cc(C#CCNc6ccc(C)c(Nc7nccc(-c8cccnc8)n7)c6)c(OC)cc5N(C)[C@H]4[C@@](O)(C(=O)OC)[C@@H]1OC(C)=O)C32 (stereo not given in full)", "rule not met"],
  ["O=C1Nc2cc(Cl)ccc2/C1=C/c1cccc(OCc2ccccc2)c1", "rule met"],
  ["COc1ccc([C@H]2C(C(=O)c3ccc(Cl)cc3)C3(N[C@@H]2c2ccccc2)C(=O)Nc2ccc(Cl)cc23)cc1 (stereo not given in full)", "rule met"]
]}

Record `Cc1noc2c(Cc3ccc([N+](=O)[O-])cc3)nn(CC(=O)N/N=C/c3ccc(Cl)cc3)c(=O)c12` : is its growth strictly below -20%? rule not met

----------
System: COLO 205 colon
Assay details: NCI-60 one-dose screen, 48 h
Measurement setup: 10 µM
About 83,000 compounds went through this panel and 20% of them were active in at least one assay; those are over-represented in the sample as a whole. The source made the active and inactive calls. How the source made its calls: active means growth percent below 10; inactive means the rest.
Pick one: active, inactive

{"columns": ["Compound", "Group"],
 "data": [
  ["Cc1cc(=O)oc2cc(OCCCCOc3ccc(/C=C/C(=O)Nc4cccc(Cl)c4)cc3)ccc12", "inactive"],
  ["COc1ccc2cc([C@H](C)C(=O)NCc3ccccc3)ccc2c1", "active"],
  ["COc1cc(/C=C/C(=O)c2ccc(F)cc2)ccc1Oc1nc(Nc2ccc(F)cc2)nc(N(C)C)n1", "inactive"],
  ["O=C(NO)c1ccc(Cn2ccc3c(NCc4ccccc4)ncnc32)cc1", "active"],
  ["CC[C@@]1(O)C(=O)OCc2c1cc1n(c2=O)Cc2c-1nc1cc(F)c(C)c3c1c2[C@@H](N)CC3", "active"]
]}

Now for a further compound.
Kindly provide the recorded test outcome for the following compound: `O=C(Cn1nc(-c2ccccc2)ccc1=O)NN1C(=O)c2ccccc2C1=O` inactive

----------
System: HOP-92 NSCLC
Assay details: NCI-60 one-dose screen, 48 h (100 = growth as untreated, 0 = no growth, -100 = all killed)
Measurement setup: 10 µM
Compounds without any hit were thinned out: in the full panel of roughly 83,000, 20% have a hit.
Readout: growth (%)
Give bare numbers, in %.

{"columns": ["Compound", "growth / %"],
 "data": [
  ["CC(=C(c1ccc(OCCN2CCCCC2)cc1)c1ccc(OCCN2CCCCC2)cc1)c1ccccc1", 8.69]
]}

Need growth for each of these compounds.
1. CCN1CCN(c2ccc(NC(=O)Nc3ccc(-c4cc(C(=O)NC)c5ncccc5n4)cc3)cc2C(F)(F)F)CC1
2. CN1CCN(Cc2ccc(C(=O)Nc3cccc(Nc4ccc5cc(O)ccc5n4)c3)cc2C(F)(F)F)CC1
3. O/N=C(\CSc1nnc(-c2c[nH]c3ccccc23)n1-c1ccccc1)c1ccc(Br)cc1
4. O=c1nc(-c2ccccc2)cc(-c2cc3ccccc3nc2Cl)[nH]1
5. COC(=O)CC1CC1C1Cc2c(nc(N(C)S(C)(=O)=O)nc2C(C)C)-c2ccc(F)cc21 (configuration not stated)
6. Cc1ccc(/C(N)=N/c2sc(-c3ccccc3)nc2-c2ccccc2)cc1
7. CC(=O)Nc1ccc(-c2cn(-c3cccc(C(=O)Nc4cc(CN5CCOCC5)cc(C(F)(F)F)c4)c3)nn2)cn1

[-81.8, -46.2, -11.2, 41.8, 84, 90.2, -77.5]

Need growth for each of these compounds.
1. COc1csc(/C=N/NC(=O)c2[nH]c3ccc(Br)cc3c2-c2ccccc2)c1
2. CC(C)(C)c1ccc(NCc2cn(-c3ccc(C(=O)O)cc3)nc2-c2ccc(C#N)cc2)cc1

49.2
-3.79

----------
System: SK-MEL-5 melanoma
Assay details: NCI-60 one-dose screen, 48 h (100 = growth as untreated, 0 = no growth, -100 = all killed)
Measurement setup: 10 µM
The panel holds about 83,000 compounds, 20% with a hit somewhere; the sample as a whole holds those more often.
Readout: growth (%)
Give bare numbers, in %.

Record excerpt, results attached:
{"columns": ["Molecule", "growth, %"],
 "data": [
  ["COC(=O)C(Cc1ccc(O)c(O)c1)NC(=O)C(CSC/C=C(\\C)CCCC(C)CCCC(C)CCCC(C)C)NC(C)=O (centres undefined)", 36.8],
  ["Cc1ccc2nc(COc3ccc(C(=O)NNC(=S)NCCc4ccccc4)cc3)[nH]c2c1", 89],
  ["O=C(c1ccc(-n2c(=O)[nH]c3ccccc3c2=O)cc1)N1CCOCC1", 107],
  ["COC1CC(Cn2cc(COc3ccc4ccc(=O)oc4c3)nn2)C(OCc2ccccc2)C(OCc2ccccc2)C1OCc1ccccc1 (centres undefined)", 83.2],
  ["O=C1CCC(N2Cc3cc(NC(=O)COc4ccccc4)ccc3C2=O)C(=O)N1 (centres undefined)", 74.2],
  ["COc1ccccc1[C@H]1C(C(=O)c2ccc(Cl)cc2)C2(N[C@@H]1c1ccccc1)C(=O)Nc1ccccc12 (some centres undefined)", -87.2],
  ["CN(C)CCNC(=O)OCCCCOc1cc(O)c2c(=O)cc(-c3ccccc3)oc2c1", -100],
  ["O=C1Nc2cc(Cl)ccc2/C1=C/c1cccc(OCc2ccccc2)c1", -98]
]}

With those in mind, consider the next molecule.
Which growth is reported with SK-MEL-5 melanoma for this entry: `CO[C@@H]1CSS[C@H]1Cn1nc(-c2ccc(Oc3ccccc3)cc2)c2c(N)ncnc21` ? 25.7

----------
Provide the recorded growth for the entries that follow.
Tested on: HOP-62 NSCLC
Assay details: NCI-60 one-dose screen, 48 h (100 = growth as untreated, 0 = no growth, -100 = all killed)
Measurement setup: 10 µM
The panel holds about 83,000 compounds, 20% with a hit somewhere; the sample as a whole holds those more often.
Numbers only, in %.

{"columns": ["Molecule", "Endpoint result"],
 "data": [
  ["Brc1ccc(/C=N/Nc2ncnc3sc4c(c23)CCN(Cc2ccccc2)C4)cc1", 103],
  ["C=C1CC[C@H](C(=C)C)[C@H]2C=C(C)C(=O)C3=C(C(=O)[C@@](C)(O)C3)[C@H]12", -72.7],
  ["CCOc1ccc(/C=N/NC(=O)Cn2nc(Cc3ccccc3)c3onc(C)c3c2=O)cc1", -39.3],
  ["Cc1ccc2nc(-c3ccc(-c4nnc(SCC(=O)Nc5ccc(Cl)cc5)o4)cc3)[nH]c2c1", 61.8],
  ["CONC[C@]1(C)C=C2C(=O)[C@](C)(O)C3(CC3)C(C)=C2[C@H]1O", -21.7]
]}

Need growth for each of these compounds.
1. COc1ccc(-c2ccc(/C=N/NC(=O)c3[nH]c4ccc(Br)cc4c3-c3ccccc3)s2)cc1
2. O=C(NO)c1ccc(-c2nc3ccc4[nH]ncc4c3c3c2CCCC3)cc1
3. COc1ccc(OC)c(/C=N/NC(=O)c2ccc3nc(-c4ccc(Cl)cc4)[nH]c3c2)c1
4. COc1ccc(C(=O)Nc2ccc(-c3ccc4c(c3)NC(=O)/C4=C\c3ccc[nH]3)cc2)cc1

96.1
0.238
81.6
63.1
